As shown below, each of these compounds has a reported melting point value.

O=C(O)C(=O)c1ccc(F)c(F)c1 | 88 to 90 °C
Nc1cc(N2CCCS2(=O)=O)ccc1O | 134 to 136 °C
Nc1cc(-c2ccc([N+](=O)[O-])cc2)no1 | 195 to 197 °C
O=C1CCSc2c(F)ccc(F)c21 | 111 to 113 °C
O=[N+]([O-])c1ccc(N2CCOCC2)nc1 | 143 to 145 °C

Item CS(=O)(=O)NCCCN has what recorded melting point? 61 to 63 °C

Recorded melting point of N#CC1CC(=O)N(c2ccccc2)C1 (centres undefined) , please. 138 to 140 °C

---

Here, each record is paired with measured melting point data.

CCC(N)C(=O)NC(CC)c1ccc(C)cc1 (centres undefined) | 59 to 61 °C

Returns the measured melting point for the input compound. Input: O=[N+]([O-])c1ccccc1CS(=O)(=O)Cl 64 to 66 °C

Looking for the measured melting point of Cc1ccc2oc(S)nc2n1 , can you help? 139 to 141 °C

May I ask what melting point has been recorded for NC(=S)C1CN(Cc2ccccc2)CCO1 (centres undefined) ? 90 to 92 °C

Value lookup for melting point; key = CC1=NN(C)C(=O)C1C (centres undefined) 132 to 134 °C

I am curious: what melting point value has been reported for CSCCC(NC(=O)COc1ccccc1)C(=O)O (centres undefined) ? 122 to 130 °C

Bench note: what melting point did O=C(O)c1ccc(N2CCC(O)CC2)cc1 show? 259 to 261 °C

Which melting point is reported for this compound? CCS(=O)(=O)c1ccccc1N1CCC(N)CC1 119 to 121 °C

Which melting point is listed for O=Cc1ccc(-c2ccccc2F)o1 ? 66 to 68 °C

Could you share which melting point value was measured for Nc1cc(S(N)(=O)=O)ccc1S ? 220 to 222 °C

Entry Cc1cc2cc(C(=O)O)oc2cc1C has what melting point? 269 to 271 °C

melting point lookup needed for O=C(O)[C@@H]1CCCN1C(=O)c1ccccn1 , thanks. 165 to 167 °C

Reported melting point for COCc1nc2cc(N)ccc2o1 : what is it? 54 to 56 °C

Record request: melting point value, item O=c1cnc2cc(F)c(F)cc2[nH]1 289 to 291 °C

---

Measurement label: melting point

CCS(=O)(=O)c1ccc2oc(S)nc2c1 | 188 to 190 °C

Turning now to a further record.
Given COc1ccccc1N(C)S(=O)(=O)c1ccc(Cl)c(C(=O)O)c1 , state its recorded melting point. 179 to 181 °C

---

Item-by-item account of melting point

OCc1nnc(-c2ccccc2Cl)o1 | 101 to 103 °C
CCOC=C1C(=O)N(c2cccc(Cl)c2)C(=O)c2ccccc21 | 205 to 209 °C
O=Cc1ccc(OCCC(=O)O)cc1 | 132 to 134 °C

Report melting point for O=[N+]([O-])c1ccc2c(c1)CCCN2 please. 155 to 157 °C

Would you kindly share the measured melting point for CC(Sc1ncccc1C(=O)O)C(=O)N1CCCC1 (stereo not drawn) ? 192 to 194 °C

// melting point lookup, key: CCOC(=O)CNC(=O)CC 50 to 52 °C

Reported melting point, compound Nc1ccc(-n2nccn2)cc1C(F)(F)F : ____ 84 to 86 °C

Param item = Cc1nn2c(=S)nc3ccccc3c2[nH]1 ; retrieve measured melting point. 291 to 293 °C

Item under review: Cc1cc(C(=O)O)cc(C)c1OCC(=O)N1CCCCC1 . Reported melting point? 175 to 177 °C

# input compound: Oc1ccc(CNCc2ccco2)cc1 ; wanted: its melting point 107 to 109 °C

Item CN(C)S(=O)(=O)c1ccccc1CNC(=O)CCl has what recorded melting point? 87 to 89 °C

# query: melting point of entry CCOC(=O)c1c(N)sc(C(=O)OC)c1CC(=O)OC 168 to 170 °C

May I ask what melting point has been recorded for COc1cccc(-c2csc(=O)[nH]2)c1 ? 154 to 156 °C
